assayed system: Acetylcholinesterase (Electrophorus electricus) (UniProt O42275)
Sequence (O42275 24-633 limits assumed): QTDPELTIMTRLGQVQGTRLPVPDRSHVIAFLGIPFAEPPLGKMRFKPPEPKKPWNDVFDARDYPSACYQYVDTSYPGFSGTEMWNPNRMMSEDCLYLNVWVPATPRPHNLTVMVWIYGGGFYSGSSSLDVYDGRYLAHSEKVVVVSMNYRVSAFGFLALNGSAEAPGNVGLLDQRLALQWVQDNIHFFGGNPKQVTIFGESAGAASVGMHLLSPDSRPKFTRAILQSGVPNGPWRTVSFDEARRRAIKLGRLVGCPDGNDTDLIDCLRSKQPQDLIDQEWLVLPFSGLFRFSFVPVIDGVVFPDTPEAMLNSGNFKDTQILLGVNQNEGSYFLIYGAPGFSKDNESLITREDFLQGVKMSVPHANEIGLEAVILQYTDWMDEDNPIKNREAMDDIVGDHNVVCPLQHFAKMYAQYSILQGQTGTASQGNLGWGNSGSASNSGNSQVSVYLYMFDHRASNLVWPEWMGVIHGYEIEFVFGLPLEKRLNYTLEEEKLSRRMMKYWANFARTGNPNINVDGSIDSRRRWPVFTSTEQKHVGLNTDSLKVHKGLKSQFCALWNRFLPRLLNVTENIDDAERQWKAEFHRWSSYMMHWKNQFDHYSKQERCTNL
test: Inhibition of electric eel AChE using acetylthiocholine iodide as substrate at 20 uM incubated for 20 mins by Ellman's method relative to control
Assign classes using reported inhibition values and the ranges class A = under 30%, class B = from 30% up to 50%, class C = 50% and over, please.

[
  {
    "record smiles": "COc1cc(OC)c2c(=O)[nH]c(-c3ccc(O[C@@H]4O[C@H](CO)[C@@H](O)[C@@H](O)[C@H]4O)cc3)nc2c1",
    "class name": "class B"
  },
  {
    "record smiles": "COc1cc(OC)c2c(=O)[nH]c(-c3nc[nH]c3C)nc2c1",
    "class name": "class C"
  },
  {
    "record smiles": "COc1cc(OC)c2c(=O)[nH]c(C3CCN(Cc4ccccc4)CC3)nc2c1",
    "class name": "class C"
  },
  {
    "record smiles": "COc1cc(OC)c2c(=O)[nH]c(-c3cccs3)nc2c1",
    "class name": "class B"
  },
  {
    "record smiles": "O=c1[nH]c(C2CCN(Cc3ccccc3)CC2)nc2ccc(Br)cc12",
    "class name": "class B"
  },
  {
    "record smiles": "COc1cc(-c2nc3ccc(NC(=O)CCN4CCN(C)CC4)cc3c(=O)[nH]2)cc(OC)c1OC",
    "class name": "class A"
  },
  {
    "record smiles": "COc1cc(-c2nc3ccc(NC(=O)CCl)cc3c(=O)[nH]2)cc(OC)c1OC",
    "class name": "class B"
  },
  {
    "record smiles": "O=c1[nH]c(C2CCN(Cc3ccccc3)CC2)nc2ccc([N+](=O)[O-])cc12",
    "class name": "class C"
  },
  {
    "record smiles": "COc1cc(OC)c2c(=O)[nH]c(-c3ccc(N4CCOCC4)cc3)nc2c1",
    "class name": "class B"
  },
  {
    "record smiles": "COc1cc(OC)c2c(=O)[nH]c(-c3ccc(N4CCN(C)CC4)cc3)nc2c1",
    "class name": "class C"
  },
  {
    "record smiles": "COc1cc(OC)c2c(=O)[nH]c(-c3c[nH]cn3)nc2c1",
    "class name": "class B"
  },
  {
    "record smiles": "CN1CCN(c2ccc(-c3nc4ccccc4c(=O)[nH]3)cc2)CC1",
    "class name": "class C"
  },
  {
    "record smiles": "COc1cc(-c2nc3ccc([N+](=O)[O-])cc3c(=O)[nH]2)cc(OC)c1OC",
    "class name": "class A"
  },
  {
    "record smiles": "COc1cc(-c2nc3ccc(NC(=O)CCN4CCC(O)CC4)cc3c(=O)[nH]2)cc(OC)c1OC",
    "class name": "class A"
  },
  {
    "record smiles": "COc1cc(OC)c2c(=O)[nH]c(-c3ccc(N4CCN(CCO)CC4)cc3)nc2c1",
    "class name": "class C"
  },
  {
    "record smiles": "COc1cc(-c2nc3ccc(Br)cc3c(=O)[nH]2)cc(OC)c1OC",
    "class name": "class B"
  },
  {
    "record smiles": "COc1cc(-c2nc3ccc(NC(=O)c4ccc(F)cc4)cc3c(=O)[nH]2)cc(OC)c1OC",
    "class name": "class A"
  },
  {
    "record smiles": "COc1cc(OC)c2c(=O)[nH]c(-c3ccc(N4CCNCC4)cc3)nc2c1",
    "class name": "class B"
  },
  {
    "record smiles": "COc1cc(OC)c2c(=O)[nH]c(C(=O)c3ccc(O)cc3)nc2c1",
    "class name": "class A"
  },
  {
    "record smiles": "COc1cc(-c2nc3ccc(NC(=O)CN4CCCCC4)cc3c(=O)[nH]2)cc(OC)c1OC",
    "class name": "class A"
  }
]
